- Test system: Caco 2 cells
- assay.protocol: Anti-proliferative activity in Caco 2 cells
- Type: cell-based
property.measured: IC50 (µM)
Answer format: numeric, µM implied, no suffix.

Name the recorded IC50 for O=c1[nH]cc(F)c(=O)[nH]1 [Example 5-FU] . 28

---

Measured reduction of the number of ACF accompanies every entry in the list below.
- Test system: Aberrant crypt foci (ACF)
- assay.protocol: Aberrant crypt foci (ACF) induced by 1,2-dimethylhydrazine in rats
- Type: in vivo
- run.parameters: DMH-induced ACF, Sprague-Dawley rats; equivalent anti-inflammatory doses, twice daily orogastric gavage for 3 weeks
Please state the figure in %; there is no need to write the unit.

Use the examples below as a reference point.
CC1=C(CC(=O)Oc2ccc(-c3cc(=S)ss3)cc2)c2cc(F)ccc2/C1=C\c1ccc(S(C)(=O)=O)cc1 [Example 3] :: 45
CC1=C(CC(=O)OCCSS(C)(=O)=O)c2cc(F)ccc2/C1=C\c1ccc(S(C)(=O)=O)cc1 [Example 8] :: 60
Cc1ccc(-c2cc(C(F)(F)F)nn2-c2ccc(S(N)(=O)=O)cc2)cc1 [celecoxib] :: 22
CC1=C(CC(=O)O)c2cc(F)ccc2/C1=C\c1ccc([S+](C)[O-])cc1 (centres unmarked) [Sulindac sulfoxide] :: 46

Requested field: reduction of the number of ACF. Item: CC1=C(CC(=O)O)c2cc(F)ccc2/C1=C\c1ccc(S(C)(=O)=O)cc1 [sulindac sulfone] 36

Reference source: patent US20080207751A1
